system: EKVX NSCLC; experiment: NCI-60 one-dose screen, 48 h (100 = growth as untreated, 0 = no growth, -100 = all killed); conditions: 10 µM unless noted
This is part of a sample that, as a whole, favours compounds with a hit. Of some 83,000 tested, about 20% had one in any assay.
Quantity kind: growth (%)
Write it as a number; the unit % goes unstated.

For orientation, consider the following solved cases.
Molecule: NS(=O)(=O)c1ccc(CCN2C(=O)c3cc(Cl)c(Cl)cc3C2=O)cc1
growth (%): 103

Molecule: CN(C)c1ccc(Nc2c3ccccc3nc3cc(NC(=O)CCN4CCCC4)ccc23)cc1
growth (%): 9.96

Molecule: NC1[C@H](c2c[nH]c3ccccc23)c2c([nH]c3ccccc23)[C@H]1c1c[nH]c2ccccc12 (some centres undefined)
growth (%): 85.1

Molecule: c1ccc(-c2c(-c3ccccc3)[n+](Cc3ccc4ccccc4c3)c(-c3cccc4ccccc34)n2Cc2ccc3ccccc3c2)cc1
growth (%): -10.9

Prompt line: What value of growth has been reported for the following molecule? COc1cccc(-c2nc3occn3c2-c2ccnc(NCCNS(=O)(=O)c3cccc4ccccc34)n2)c1
Response line: 114

Prompt line: Dear colleague, I am looking for the recorded growth of the following molecule: CCCCCN1C=C/C(=C\C(=O)N(C)c2ccc(Oc3ccccc3)cc2)c2ccccc21
Response line: 56.6

Prompt line: Quick one: growth of COc1ccc(NC(N)=NCCCOc2ccc(F)cc2)cc1 ?
Response line: 69

Prompt line: Return reported growth; argument: NNC(=O)c1ccc(-n2nc(-c3ccccc3)c3ccccc32)cc1
Response line: 63.4

Prompt line: Which growth is listed for CN(C)CC(O)c1ccc(/C=C/c2ccc(Cl)cc2)cc1 (centres undefined) ?
Response line: 29.7

* * *

Test system: BT-549 breast
Assay: NCI-60 one-dose screen, 48 h
Settings: 10 µM unless noted
Experimental: Growth inhibition of the BT-549 human tumor cell line is measured as a screen for anti-cancer activity. Cells are grown in 96 well plates and exposed to the test compound for 48 hours. Compounds are tested at a single concentration, which is 10^-5 M for most compounds. The reported endpoint is percent growth (GI% or GIPRCNT), where numbers from 0 - 100% represent growth inhibition, and numbers from -100% - 0 represent cell death. For example, a value of 40 represents 60% growth inhibition. […]
Compounds without any hit were thinned out: in the full panel of roughly 83,000, 20% have a hit. The source made the active and inactive calls. Rule for the calls: active = growth percent below 10; inactive = the rest.
Parameter call: string, one of active, inactive

Here are 2 molecules together with their reported answers.
Input smiles: Cc1nc2ccc(Cl)cn2c1-c1nnc(SCc2ccc([N+](=O)[O-])cc2)o1
Label: inactive
//
Input smiles: C=C(C)[C@@H]1CC[C@]2(C(=O)N3CCN(C)CC3)CC[C@]3(C)[C@H](CC[C@@H]4[C@@]5(C)CC[C@H](OCCC#N)C(C)(C)[C@@H]5CC[C@]43C)[C@@H]12
Label: inactive

Prompt line: Query: recorded result category for CCCNC(=O)Oc1ccc(/C(=C(\C)c2ccccc2)c2ccc(OCCCN(C)C)cc2)cc1 in this test
Response line: inactive

Prompt line: How did this test come out for N#Cc1cccc(-c2ccc3c(c2)NC(=O)/C3=C\c2ccc[nH]2)c1 ?
Response line: inactive

Prompt line: GET /call?item= COc1ccc(/C=C2\COc3ccc(-c4ccccc4)cc3C2=O)c(OC)c1 returns the recorded outcome of this test.
Response line: inactive

Prompt line: Recorded test outcome, item COc1cc(/C=C\C(=O)O)ccc1OCc1ccccc1
Response line: inactive

Prompt line: // return assay outcome for COC(=O)/C=C1\S/C(=N\NC(=O)c2cc3ccc2/C=C\c2ccc(cc2)/C=C\3)N(Cc2ccccc2)C1=O
Response line: inactive

* * *

system: HOP-62 NSCLC; assay: NCI-60 one-dose screen, 48 h; conditions: 10 µM unless noted
About 83,000 compounds went through this panel and 20% of them were active in at least one assay; those are over-represented in the sample as a whole. Activity calls are given as the source filed them. How the source made its calls: active means growth percent below 10; inactive means the rest.
Form entry, call: pick from 1 (yes) = active, 0 (no) = inactive

Molecule: COc1ccc(C(=O)C2C(C#N)C(C#N)C3c4ccccc4C=CN23)cc1 (centres undefined)
Label: 0 (no)
--
Molecule: CN1CCN(C(=O)[C@]23CCC(C)(C)C[C@H]2C2=CC[C@@H]4[C@@]5(C)C/C(=C/c6ccncc6)C(=O)C(C)(C)[C@@H]5CC[C@@]4(C)[C@]2(C)CC3)CC1
Label: 0 (no)
--
Molecule: Cc1ccccc1NS(=O)(=O)c1cccc(C(=O)Nc2ccc(Br)cc2)c1
Label: 0 (no)

Prompt line: Per the assay record, what outcome was assigned to N#C/C(=C\c1cccc(C#N)c1)c1ccccc1 ?
Response line: 0 (no)

Prompt line: Outcome logged for COc1ccc2c(c1)oc1c(C)c3c(c(C)c12)C(=O)N(CCN1CCOCC1)C3=O in this assay:
Response line: 0 (no)

* * *

test system: OVCAR-5 ovarian; assay: NCI-60 one-dose screen, 48 h; conditions: 10 µM unless noted
Compounds without any hit were thinned out: in the full panel of roughly 83,000, 20% have a hit. The source made the active and inactive calls. Rule for the calls: active = growth percent below 10; inactive = the rest.
Mark one answer only. Choices: 1 (active), 0 (inactive)

Input smiles: O=C1c2c(c3c4cccc(F)c4[nH]c3c3ccc4ccccc4c23)C(=O)N1O
Label: 0

Input smiles: O=C(NCCc1ccccc1)Nc1ccc2cc3ccc(NC(=O)NCCc4ccccc4)cc3nc2c1
Label: 0

Input smiles: COc1ccc(C(=O)/C=C/c2cc3ccccc3n3nnnc23)cc1
Label: 0

Input smiles: NS(=O)(=O)c1ccc(CCN2C(=O)C=CC2=O)cc1
Label: 0

Input smiles: COc1cccc(-c2nc3occn3c2-c2ccnc(NCCNS(=O)(=O)c3cccc4ccccc34)n2)c1
Label: 0

Input smiles: COc1cc2oc(-c3cccc(C(=O)Nc4ccc(Cl)cc4)c3)cc(=O)c2c(O)c1OC
Label: 0

Prompt line: Test call for this compound, please: COc1ccc(/C=C/c2nc(Nc3ccc(Cl)cc3)c3ccccc3n2)cc1
Response line: 0

Prompt line: Status in this test for O=C1c2ccc3c4c(ccc(c24)C(=O)N1CCCNCc1ccccc1)C(=O)N(CCCNCc1ccccc1)C3=O ?
Response line: 1

Prompt line: Please share the test call associated with CC(=O)O[C@H]1Cc2c([nH]c3ccccc23)[C@@H](c2ccc(Cl)cc2)N1C(=O)CCNC(C)(C)C .
Response line: 0

* * *

system: A549/ATCC NSCLC; experiment: NCI-60 one-dose screen, 48 h; settings: 10 µM unless noted
This is part of a sample that, as a whole, favours compounds with a hit. Of some 83,000 tested, about 20% had one in any assay. Active and inactive are the calls of the source. Rule for the calls: active = growth percent below 10; inactive = the rest.
// allowed return values: true (1) (active), false (0) (inactive)

Look over these answered cases.
Compound: O=C(CCN1CCCC1)Nc1ccc2c(NCc3ccccc3)c3ccccc3nc2c1
Label: true (1)

Compound: NC(=NCc1ccccc1)C(N=Nc1ccccc1)C(=O)NCc1ccccc1 (stereo not drawn)
Label: true (1)

Compound: O=C(NCCNc1nccc(-c2c(-c3cccc(F)c3)nc3sccn23)n1)c1ccc(Cl)cc1
Label: false (0)

Compound: O=C(c1ccccc1)N1N=C(c2ccc(-n3ccc(C(F)(F)F)n3)c(F)c2)CC1c1ccc[nH]1 (stereo not drawn)
Label: false (0)

Compound: CCOC(=O)c1nc2c3ccccc3ccn2c1C(=O)OCC
Label: false (0)

Prompt line: Which result was noted for this compound in the test: CCN1C(=O)/C(=C/C(=O)OC)S/C1=N\NC(=O)c1cc2ccc1/C=C\c1ccc(cc1)/C=C\2
Response line: false (0)

Prompt line: Test call, this compound: O=C(Nc1ccccc1C(=O)N/N=C(\c1ccccc1)c1ccccn1)c1ccc(F)cc1
Response line: false (0)

Prompt line: Each compound tested received a call. Report the one for COc1ccc(-c2nc([C@@H](C)Sc3nc(N)cc(N)n3)c(C)s2)cc1OCCN1CCOCC1 .
Response line: false (0)

Prompt line: Any idea what this test logged for CC(Sc1nc2sc3c(c2c(=O)n1-c1ccc(Cl)cc1)CCCC3)C(=O)Nc1nc(-c2ccc(Br)cc2)cs1 (stereo not drawn) ?
Response line: false (0)

Prompt line: For CCC(=O)Oc1ccc(/C(=C(\C)c2ccccc2)c2ccc(OCCN3CCCCC3)cc2)cc1 , what call appears in the results of this test?
Response line: false (0)

Prompt line: State the result this test recorded for CC1(C)CC[C@]23CC[C@]4(C)[C@H](CC[C@@H]5[C@@]6(C)CCCNC(C)(C)[C@@H]6CC[C@]54C)[C@H]2[C@H]1OC3 .
Response line: true (1)

Prompt line: Any idea what this test logged for O=C(C[n+]1cccc2ccccc21)c1ccc(O)c(O)c1 ?
Response line: false (0)

* * *

Measured growth accompanies every entry in the list below.
test system: NCI-H460 lung; assay: NCI-60 one-dose screen, 48 h (100 = growth as untreated, 0 = no growth, -100 = all killed); conditions: 10 µM unless noted
About 83,000 compounds went through this panel and 20% of them were active in at least one assay; those are over-represented in the sample as a whole.
Give the value, in units of %, as a plain number.

Compound: CCOC(=O)/C(C#N)=C1/NNC(=Nc2cccnc2)S1
Quantity kind: growth
Result value: 99.3
--
Compound: O=C(O)c1ccc(-c2nn(-c3ccc(C(F)(F)F)cc3)cc2CNc2ccc(Oc3ccccc3)cc2)cc1
Quantity kind: growth
Result value: 87.4
--
Compound: Cc1ncc(C(=O)Nc2ccc(CN3CCN(C)CC3)c(C(F)(F)F)c2)cc1C#Cc1cnc(N)cc1C#N
Quantity kind: growth
Result value: -77.6
--
Compound: COc1cc2nc(-c3ccc(Cl)cc3)cc(OCCCN3CCC(O)CC3)c2cc1OC
Quantity kind: growth
Result value: 23.8
--
Compound: O=[N+]([O-])CC(c1ccccc1)c1c[nH]c2ccccc12 (stereo not drawn)
Quantity kind: growth
Result value: 52.6

Here's the next entry for you.
Prompt line: What value of growth has been reported for the following compound? COc1ccc(/C=C/C(=O)Nc2cc(/C=C\c3cc(OC)c(OC)c(OC)c3)cc(OC)c2OC)cc1OC
Response line: 17.5
